- System: P388 leukemia ip, CD2F1 mice, survival T/C
- method-summary: NCI In Vivo Anticancer Drug Screen. Data for tumor model P388 Leukemia (intraperitoneal) in CD2F1 (CDF1) mice
- run-conditions: endpoint: median survival time; dose: 50.0 mg/kg/injection; schedule: Q04DX003 (ip); vehicle: water; higher = longer survival
Inconclusive results and toxic doses are left out.

| molecule | test-target | T/C |
| --- | --- | --- |
| COc1cccc2c1C(=O)c1c(O)c3c(c(O)c1C2=O)C[C@@](O)(c1csc(-c2ccncc2)n1)C[C@@H]3OC1CC(N)C(O)C(C)O1 (some centres undefined) | P388 leukemia ip, CD2F1 mice, survival T/C | 118 % of control |
| COc1cccc2c1C(=O)c1c(O)c3c(c(O)c1C2=O)CC(O)(C(C)=O)CC3OC1CC(NCC2(O)OCC(O)C2O)C(O)C(C)O1 (centres undefined) | P388 leukemia ip, CD2F1 mice, survival T/C | 122 % of control |
| CCC1(O)CC(OC2CC(O)C(O)C(C)O2)c2c(O)c3c(c(O)c2C1C(=O)OC)C(=O)c1cccc(O)c1C3=O (centres undefined) | P388 leukemia ip, CD2F1 mice, survival T/C | 104 % of control |
| COc1cccc2c1C(=O)c1c(O)c3c(c(O)c1C2=O)CC(O)(C(C)=O)CC3OC1CC(SC)C(OC(C)=O)C(C)O1 (centres undefined) | P388 leukemia ip, CD2F1 mice, survival T/C | 96 % of control |

Source: PubChem BioAssay AID330
